Protein target, amino acids: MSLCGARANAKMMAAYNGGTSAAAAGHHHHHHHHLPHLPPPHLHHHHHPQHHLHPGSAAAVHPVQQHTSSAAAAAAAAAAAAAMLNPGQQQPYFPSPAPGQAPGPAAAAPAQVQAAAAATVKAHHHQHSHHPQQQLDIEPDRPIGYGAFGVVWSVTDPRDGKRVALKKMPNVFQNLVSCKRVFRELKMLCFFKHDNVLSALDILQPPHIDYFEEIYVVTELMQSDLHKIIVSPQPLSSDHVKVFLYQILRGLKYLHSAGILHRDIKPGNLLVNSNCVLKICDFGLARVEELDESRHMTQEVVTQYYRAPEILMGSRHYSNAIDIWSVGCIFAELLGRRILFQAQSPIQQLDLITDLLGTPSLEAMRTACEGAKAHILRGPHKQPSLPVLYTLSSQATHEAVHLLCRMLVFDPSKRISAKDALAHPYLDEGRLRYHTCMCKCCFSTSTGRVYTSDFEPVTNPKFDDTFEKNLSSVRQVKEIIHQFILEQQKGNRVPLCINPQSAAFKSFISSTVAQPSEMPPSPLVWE
outcomeMeasure: IC50 (µM)
Quick note: give the figure in µM, leave out the unit.

Record CN1CCCNc2c(c(=O)c2=O)NCCCN(C)CCCNc2c(c(=O)c2=O)NCCCN(C)CCCNc2c(c(=O)c2=O)NCCCN(C)CCCNc2c(c(=O)c2=O)NCCCN(C)CCCNc2c(c(=O)c2=O)NCCC1 [Compound 10] , field IC50: 4.3

---

Test system: RXF-393 (Renal)
Assay: NCI60 panel IC50
Type: cell-based
Details: Homo sapiens
outcomeMeasure: IC50 (µM)
# number only, unit µM dropped from output

// sample CN1CCCNc2c(c(=O)c2=O)NCCCN(C)CCCNc2c(c(=O)c2=O)NCCCN(C)CCCNc2c(c(=O)c2=O)NCCCN(C)CCCNc2c(c(=O)c2=O)NCCCN(C)CCCNc2c(c(=O)c2=O)NCCC1 [Compound 10] , its IC50 was 2.77

---

System: DAUDI (Leukaemia)
Assay: NCI60 panel IC50
Assay type: cell-based
Conditions: Homo sapiens
outcomeMeasure: pIC50
The scale used: pIC50 is minus the common logarithm of the concentration in molar units.

For record CN1CCCNc2c(c(=O)c2=O)NCCCN(C)CCCNc2c(c(=O)c2=O)NCCCN(C)CCCNc2c(c(=O)c2=O)NCCCN(C)CCCNc2c(c(=O)c2=O)NCCCN(C)CCCNc2c(c(=O)c2=O)NCCC1 the listed pIC50 is 5.70

---

Test system: A549 (Lung)
Assay: NCI60 panel IC50
Format: cell-based
Details: Homo sapiens
outcomeMeasure: IC50 (µM)
I only need the number, in µM, no unit after it.

// CN1CCCNc2c(c(=O)c2=O)NCCCN(C)CCCNc2c(c(=O)c2=O)NCCCN(C)CCCNc2c(c(=O)c2=O)NCCCN(C)CCCNc2c(c(=O)c2=O)NCCCN(C)CCCNc2c(c(=O)c2=O)NCCC1 : IC50 value = 5.29

---

System: RPMI-8226 (Leukaemia)
Assay: NCI60 panel IC50
Assay type: cell-based
Settings: Homo sapiens
outcomeMeasure: IC50 (µM)
Use µM as the unit, but write only the number.

IC50 recorded for this compound, CN1CCCNc2c(c(=O)c2=O)NCCCN(C)CCCNc2c(c(=O)c2=O)NCCCN(C)CCCNc2c(c(=O)c2=O)NCCCN(C)CCCNc2c(c(=O)c2=O)NCCCN(C)CCCNc2c(c(=O)c2=O)NCCC1 [Compound 10] , is 8.97
